- Test system: Vero
- assay text: Compound was tested for its cytotoxicity on Vero cells
- Format: functional, cell-based
- conditions used: Chlorocebus sabaeus
attribute measured: IC50

[
  {
    "chemical string": "CO[C@H]1/C=C/O[C@@]2(C)Oc3c(C)c(O)c4c(O)c(c(/C=N/N5CCN(C)CC5)c(O)c4c3C2=O)NC(=O)/C(C)=C\\C=C\\[C@H](C)[C@H](O)[C@@H](C)[C@@H](O)[C@@H](C)[C@H](OC(C)=O)[C@@H]1C",
    "IC50": "147 µg/mL"
  },
  {
    "chemical string": "O=C(N/N=C/c1cccc(F)c1)c1ccncc1",
    "IC50": "> 6.25 µg/mL"
  },
  {
    "chemical string": "O=C(N/N=C/c1ccccc1F)c1ccncc1",
    "IC50": "8.4 µg/mL"
  },
  {
    "chemical string": "O=C(N/N=C/c1cccc(C(F)(F)F)c1)c1ccncc1",
    "IC50": "> 10 µg/mL"
  },
  {
    "chemical string": "C/C(=N\\NC(=O)c1ccncc1)c1ccc(F)cc1",
    "IC50": "> 10 µg/mL"
  },
  {
    "chemical string": "C/C(=N\\NC(=O)c1ccncc1)c1ccccc1F",
    "IC50": "> 125 µg/mL"
  }
]

Okay, now this compound:
Entry under test: NNC(=O)c1ccncc1 . Its IC50 was > 1000 µg/mL

###

The entries below are paired with their reported selectivity ratio.
- assay text: Safety index from cytotoxicity to that of minimal inhibitory concentration
- Assay type: toxicity
- conditions used: read-out: S.I

[
  {
    "chemical string": "O=C(N/N=C/c1ccccc1F)c1ccncc1",
    "result": 168
  },
  {
    "chemical string": "C/C(=N\\NC(=O)c1ccncc1)c1ccccc1F",
    "result": "> 625"
  }
]

The reported selectivity ratio of the compound C/C(=N\NC(=O)c1ccncc1)c1ccc(F)cc1 was > 50

The value of selectivity ratio measured for the compound O=C(N/N=C/c1cccc(F)c1)c1ccncc1 turned out to be > 31.2

Item: O=C(N/N=C/c1cccc(C(F)(F)F)c1)c1ccncc1 | selectivity ratio: > 100

###

- Tested on: Mycobacterium tuberculosis
- assay text: In vitro anti-mycobacterial activity against Mycobacterium tuberculosis H37Rv (Rifampin and Isoniazid susceptible ATCC 27294 strain)
- Type: functional
- Design: concentration or dose not given beside the values
Measured Inhibition, listed per entry for reference.
All answers are understood in %, so give the number only.

Recorded results for 3 compounds are shown here.
[
  {
    "chemical string": "C/C=N/NC(=O)c1ccncc1",
    "Inhibition, %": 99
  },
  {
    "chemical string": "C/C(=N\\NC(=O)c1ccncc1)C(F)(F)F",
    "Inhibition, %": 99
  },
  {
    "chemical string": "C/C(=N\\NC(=O)c1ccncc1)c1ccc(F)cc1",
    "Inhibition, %": 99
  }
]

Per the reported Mycobacterium tuberculosis data, C/C(=N\NC(=O)c1ccncc1)c1ccc(Cl)c(Cl)c1 has Inhibition of 100

Lab entry: Mycobacterium tuberculosis assay, compound O=C(N/N=C/c1ccc(C(F)(F)F)cc1)c1ccncc1 , Inhibition = 100

Lab note: compound O=C(N/N=C/c1cccc(C(F)(F)F)c1)c1ccncc1 tested on Mycobacterium tuberculosis; recorded Inhibition was 99

###

- Tested on: Mycobacterium tuberculosis
- assay text: In vitro anti-mycobacterial activity against Mycobacterium tuberculosis H37Rv (Rifampin and Isoniazid susceptible ATCC 27294 strain)
- Assay type: functional
- Parameters: concentration or dose not given beside the values
attribute measured: Inhibition (%)
Reply numerically in %, unit not repeated.

[
  {
    "chemical string": "O=C(N/N=C/c1ccccc1F)c1ccncc1",
    "attribute measured": "Inhibition",
    "result": 100
  },
  {
    "chemical string": "C/C(=N\\NC(=O)c1ccncc1)c1cccc(F)c1",
    "attribute measured": "Inhibition",
    "result": 100
  },
  {
    "chemical string": "O=C(N/N=C/c1cccc(F)c1)c1ccncc1",
    "attribute measured": "Inhibition",
    "result": 99
  },
  {
    "chemical string": "COc1ccc(/C=N/NC(=O)c2ccncc2)cc1F",
    "attribute measured": "Inhibition",
    "result": 99
  },
  {
    "chemical string": "C/C(=N\\NC(=O)c1ccncc1)c1ccccc1F",
    "attribute measured": "Inhibition",
    "result": 100
  }
]

Query O=C(N/N=C/C(F)(F)F)c1ccncc1 yields Inhibition of 100

Briefly, Inhibition measured for O=C(N/N=C(\c1ccccc1)C(F)(F)F)c1ccncc1 : 100
